Values compiled from patent US20120077828A1.

molecular target: PERK (Homo sapiens); construct: GST-PERK (536-1116) cytoplasmic domain was purchased from Invitrogen; purchased Invitrogen PV5106; experiment: PKR-like Endoplasmic Reticulum Kinase (PERK) Assay (HTRF Format); assay type: biochemical; conditions: average, in at least one set of experimental runs; read-out: average pIC50 value against PERK (converted)
Sequence (Q9NZJ5 536-1116): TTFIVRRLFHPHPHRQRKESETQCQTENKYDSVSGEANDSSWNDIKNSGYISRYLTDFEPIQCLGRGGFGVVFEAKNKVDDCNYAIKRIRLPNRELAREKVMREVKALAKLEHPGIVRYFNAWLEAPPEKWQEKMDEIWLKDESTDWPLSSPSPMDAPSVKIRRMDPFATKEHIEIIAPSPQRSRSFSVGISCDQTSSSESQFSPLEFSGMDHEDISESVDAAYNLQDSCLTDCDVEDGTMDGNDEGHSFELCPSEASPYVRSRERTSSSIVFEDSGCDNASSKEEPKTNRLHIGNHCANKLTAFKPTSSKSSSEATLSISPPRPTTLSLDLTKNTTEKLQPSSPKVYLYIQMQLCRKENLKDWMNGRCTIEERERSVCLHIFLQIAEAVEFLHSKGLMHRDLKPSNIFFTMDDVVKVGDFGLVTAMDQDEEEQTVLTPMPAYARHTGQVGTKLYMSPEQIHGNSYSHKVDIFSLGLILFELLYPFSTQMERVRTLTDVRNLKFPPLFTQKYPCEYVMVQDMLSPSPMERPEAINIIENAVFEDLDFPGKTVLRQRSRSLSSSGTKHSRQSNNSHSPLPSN
Could you please report measured IC50 for the items listed next?

{"COMPOUND": "CN1CC(n2cc(-c3ccc4c(c3)CCN4C(=O)Cc3cccc(C(F)(F)F)c3)c3c(N)ncnc32)C1 [Example 133]", "VALUE TYPE": "IC50", "ASSAY RESULT": "≤ 1 nM"}
{"COMPOUND": "Cc1cc(C)cc(CC(=O)N2CCc3cc(-c4nn(C)c5ncnc(N)c45)ccc32)c1 [Example 30]", "VALUE TYPE": "IC50", "ASSAY RESULT": "≤ 1 nM"}
{"COMPOUND": "Cn1cc(-c2ccc3c(c2)CCN3C(=O)Cc2ccc(F)cc2F)c2c(N)ncnc21 [Example 102]", "VALUE TYPE": "IC50", "ASSAY RESULT": "≤ 2.51 nM"}
{"COMPOUND": "Cc1cccc(CC(=O)N2CCc3cc(-c4csc5ncnc(N)c45)ccc32)c1 [Example 64]", "VALUE TYPE": "IC50", "ASSAY RESULT": "≤ 1 nM"}
{"COMPOUND": "Nc1nccc2scc(-c3ccc4c(c3)CCN4C(=O)Cc3cccc(Cl)c3)c12 [Example 22]", "VALUE TYPE": "IC50", "ASSAY RESULT": "≤ 2.51 nM"}
{"COMPOUND": "Nc1ncnc2c1c(-c1ccc3c(c1)CCN3C(=O)Cc1cc(F)ccc1F)cn2C1CNC1 [Example 144]", "VALUE TYPE": "IC50", "ASSAY RESULT": "≤ 0.316 nM"}
{"COMPOUND": "Nc1nccc2scc(-c3ccc4c(c3)CCN4C(=O)Cc3cc(F)ccc3F)c12 [Example 6]", "VALUE TYPE": "IC50", "ASSAY RESULT": "≤ 2.51 nM"}
{"COMPOUND": "CN(C)CCn1cc(-c2ccc3c(c2)CCN3C(=O)Cc2cccc(C(F)(F)F)c2)c2c(N)ncnc21 [Example 134]", "VALUE TYPE": "IC50", "ASSAY RESULT": "≤ 1 nM"}

I need IC50 for every entry listed below, if you could help.
1. Cn1cc(-c2ccc3c(c2)CCN3C(=O)Cc2cc(F)cc(F)c2F)c2c(N)ncnc21 [Example 90]
2. Cn1cc(-c2ccc3c(c2)CCN3C(=O)Cc2ccccc2F)c2c(N)ncnc21 [Example 34]
3. Cc1cc(C)n(CC(=O)N2CCc3c2ccc(-c2cn(C)c4ncnc(N)c24)c3F)n1 [Example 138]
4. Cc1cccc(CC(=O)N2CCc3cc(-c4nn(C)c5ncnc(N)c45)ccc32)c1F [Example 74]

result:
≤ 0.316 nM
≤ 0.316 nM
≤ 2.51 nM
≤ 1 nM
